B1: TPR 5TU (parent)
chain: GGAUCUUCUCGAUCUAACAAAAAAGACAAAUCUGCCACAAAGCUUGAGAGCAUCUUCGGAUGCAGAGGCGGCAGCCUUCGGUGGCGCGAUAGCGCCAACGUUCUCAACUAUGACACGCAAAACGCGUGCUCCGUUGAAUGGAGUUUAUCAUG

- Variants of: B1
- Test Description: polymerase ribozyme fitness, log enrichment relative to wild type (log ratio); higher = more active; in vitro selection for triplet polymerase activity
Variants at the floor of the assay were thinned out.
Everything with polymerase ribozyme fitness (log ratio) lower than -3 is No; everything else, including exactly -3, is Yes.

                                     change  group
0                                 A20C G86A    Yes
1  A19U A37U U44G A66U G92U C96A C123U G124A     No
2                     A41G C95U A122G C149A     No
3                                 C32U A89U    Yes
4             A20G U53A U56A G58A C69U C93U     No
5                  U61A G67A C76A G81A C85A     No

Task item: Does polymerase ribozyme fitness (log ratio) meet or surpass -3 for G46C A66C C85U C93G C118U ?
Reply: No
